B1: HDV Ribozyme (parent)
chain: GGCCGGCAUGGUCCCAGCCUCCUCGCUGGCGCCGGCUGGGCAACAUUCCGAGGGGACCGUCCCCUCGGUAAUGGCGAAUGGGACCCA

- Variants of: B1
- Assay comment: self-cleavage, relative activity (ratio to wild type); higher = more cleavage; co-transcriptional
The label depends only on self-cleavage: rule met if it is at least 0.2, rule not met if it is smaller.

Input: Is self-cleavage at least 0.2? Consider `GGCCGGCUUGGUCCCAGUCUCCUCGCUGGCGCCGGCUGGGCAACAUUCCGAGGGGACCGUCCCCUCGGUAAUGGCGAAUGGGACCCA`
Output: rule met

Input: Reported self-cleavage at or above 0.2? `GGCCGGCAUGGUCCCAGCCUCCUCGCUGGCGCCGGCUGGGCAACAUUGCGAGGGGACCGUCCCCUCGGUAAUGGCGCAUGGGACCCA`
Output: rule met

Input: Is self-cleavage at least 0.2? Consider `GGCCGGCAUGGUCCCAGCCUGCUCGCUGGCGCCGGCUGGGCAACAUUCCGAGGGGACCGUCCCCUCGGUAAUGGCGAAUGCGACCCA`
Output: rule not met

Input: Please indicate if the recorded self-cleavage for `GGCCGGCAUGGUCCCAGCCUCCUCGCUGGCGCCGGCUGGGCAACAUUCCGAGGGGACCGUCCCCUCUGUAAUGGCGAAUGGGAACCA` meets or exceeds 0.2.
Output: rule met

Input: Textbook exercise: given the entry `GGCCGGCAUGGUCCCAGCCUCCUCGUUGGCGCCGGCUGGGCAACAUUCCGAGAGGACCGUCCCCUCGGUAAUGGCGAAUGGGACCCA` , state whether its self-cleavage is greater than or equal to 0.2.
Output: rule met

Input: Answer whether self-cleavage of `GGCCGGCAUGGUCCCAGCCUCCUCCCUGGCGCCGGCUGGGCAACAUUCCGAGGGGACCGUCCCCUCGGUAAUGGCGUAUGGGACCCA` is greater than or equal to 0.2.
Output: rule not met

Input: Answer whether self-cleavage of `GGCCGGCAUGGUCCCAGCCUCCUCGCUGGCGCCGGCAGGGCAACAUUCCGAGGCGACCGUCCCCUCGGUAAUGGCGAAUGGGACCCA` is greater than or equal to 0.2.
Output: rule met

Input: Please indicate if the recorded self-cleavage for `GGCCGGCAUGGUCCCAGCCUCCUCGCUGGCGCCGGCUUGGCAACAGUCCGAGGGGACCGUCCCCUCGGUAAUGGCGAAUGGGACCCA` meets or exceeds 0.2.
Output: rule not met

Input: Given the entry `GGCCGGCAUGGUCCCAGCCUCCUCGCUGGCGCCGGCUGGGCAACAUUCCAAGGGGACCGUCCCCUCGGUAAUGGCGAAUGGGUCCCA` , answer whether its self-cleavage meets or surpasses 0.2.
Output: rule met

Input: Reported self-cleavage reaches at least 0.2 for `GUCCGGCAUGGUCCCAGCCUCCUCGCUGGCGCCGGCUGGGCAACGUUCCGAGGGGACCGUCCCCUCGGUAAUGGCGAAUGGGACCCA` ?
Output: rule not met

Input: Check this variant for self-cleavage at or above 0.2: `GGCCGGCAUGGUCCCAGCCUCCUCGCUGGCGCCGGCUGCGCAACAUUCCGAGGGGACCGUCCCCUCGGUAAUGGCGUAUGGGACCCA`
Output: rule not met

Input: // inclusive: self-cleavage at least 0.2? input: `GGCCGGCAUGGUCCCAGCCUCCUCGCUGGCGCCGGUUGGGCAACAUUCCGAGGGGACAGUCCCCUCGGUAAUGGCGAAUGGGACCCA`
Output: rule met

Input: Dear colleague, could you confirm whether `GGCCGGCAUGGUCCCAGCCUCCUCGCUGGAGCCGGCUGGGCAACAGUCCGAGGGGACCGUCCCCUCGGUAAUGGCGAAUGGGACCCA` has self-cleavage at or above 0.2?
Output: rule met

Input: Please tell me: is the variant `GGCCGGCAUGCUCCCAGCCUCCUCGCUGGCGCCGGCUGGGCAACAUUCCGAGGGGACCGUCCCCUCGGUAAUGGCGGAUGGGACCCA` at or over 0.2 in terms of self-cleavage?
Output: rule not met

Input: Test whether the variant `GGCCGGCAUGGUCCCAGCCUCCUGGCUGGCGCCGGCUCGGCAACAUUCCGAGGGGACCGUCCCCUCGGUAAUGGCGAAUGGGACCCA` records self-cleavage of 0.2 or higher.
Output: rule not met

Input: Does self-cleavage meet or surpass 0.2 for `GGCCGGCAUGGUCUCAGCCUCCUCGCUGGCGCCGGCUGGGCAACAUUCCGAGGGGACCGUCCCCUCGUUAAUGGCGAAUGGGACCCA` ?
Output: rule met

Input: I'd appreciate it if you could say whether `GGCCGGCAUGGUCCCAGCCUCCUCGCUGGCGCCGGCUGGGCAACAUUCCGAGGGGACCGUCCCCUCCGUAAUGGCGAAUGUGACCCA` has self-cleavage at least equal to 0.2.
Output: rule not met

Input: Quick check: does `GGCAGGCAUGGUCCCAGCCUCCUCGCUGGCGCCGGCUGGGCAACAUUCCGAGCGGACCGUCCCCUCGGUAAUGGCGAAUGGGACCCA` have self-cleavage greater than or equal to 0.2?
Output: rule met

Input: Threshold query (self-cleavage >= 0.2) on `GGCCGGCAAGGUCCCAGCCUCCUCGCUGACGCCGGCUGGGCAACAUUCCGAGGGGACCGUCCCCUCGGUAAUGGCGAAUGGGACCCA`
Output: rule not met

Input: Please tell me: is the variant `GGCCGGCAAGGGCCCAGCCUCCUCGCUGGCGCCGGCUGGGCAACAUUCCGAGGGGACCGUCCCCUCGGUAAUGGCGAAUGGGACCCA` at or over 0.2 in terms of self-cleavage?
Output: rule met

Input: Test whether the variant `GGCCGGCAUGGUCCCAGCCUCCUCGCUGGCGCCGGCUGGGCGACAUUCCGAGGGGACCGACCCCUCGGUAAUGGCGAAUGGGACCCA` records self-cleavage of 0.2 or higher.
Output: rule met

Input: Is self-cleavage at least 0.2? Consider `GGCCGGCAUGGUCCCAGCCUCCUCGCUGGCGCCGGCUGAGCAACAUUCCGAGGGGACCGUCCCCUCCGUAAUGGCGAAUGGGACCCA`
Output: rule met
